Target: Corticotropin-releasing factor receptor 2/Corticotropin-releasing factor-binding protein (Homo sapiens, UniProt P24387+Q13324)
Sequence (Q13324 whole entry): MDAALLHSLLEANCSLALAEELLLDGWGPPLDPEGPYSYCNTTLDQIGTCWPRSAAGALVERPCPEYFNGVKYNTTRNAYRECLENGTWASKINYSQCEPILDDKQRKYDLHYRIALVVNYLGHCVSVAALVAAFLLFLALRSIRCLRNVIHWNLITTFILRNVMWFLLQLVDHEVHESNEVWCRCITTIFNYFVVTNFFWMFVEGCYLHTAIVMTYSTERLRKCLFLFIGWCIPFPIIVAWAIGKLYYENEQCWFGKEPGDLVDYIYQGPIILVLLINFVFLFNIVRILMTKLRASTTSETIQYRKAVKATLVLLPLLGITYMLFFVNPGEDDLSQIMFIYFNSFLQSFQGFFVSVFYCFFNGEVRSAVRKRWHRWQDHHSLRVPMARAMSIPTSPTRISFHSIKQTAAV
Sequence (P24387 whole entry): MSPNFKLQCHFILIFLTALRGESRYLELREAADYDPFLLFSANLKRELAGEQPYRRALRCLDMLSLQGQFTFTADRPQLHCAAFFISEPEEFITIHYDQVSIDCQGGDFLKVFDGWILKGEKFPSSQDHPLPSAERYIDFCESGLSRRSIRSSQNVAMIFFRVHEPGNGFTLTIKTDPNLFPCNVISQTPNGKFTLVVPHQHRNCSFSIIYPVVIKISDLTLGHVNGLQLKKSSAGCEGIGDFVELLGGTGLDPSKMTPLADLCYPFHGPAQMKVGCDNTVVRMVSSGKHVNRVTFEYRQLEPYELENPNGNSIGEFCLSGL
Experiment: Dose Response confirmation of uHTS hits for small molecule antagonists of the CRF-binding protein and CRF-R2 receptor complex.
Type: functional
Conditions: read-out: IC50_Mean
Calls of active or inactive are those of the source.
Pick one and only one: active, inactive

>>> answer_label("COc1ccc(CNC(=O)CN2CCN(c3ccc(F)cc3)CC2)cc1")
"inactive"
>>> answer_label("CCN(C(=O)COC(=O)Cc1cccc2ccccc12)C1CCS(=O)(=O)C1 (stereo unspecified)")
"inactive"
>>> answer_label("O=C(c1cccc([N+](=O)[O-])c1)c1ccc2c(c1)OCCOCCOCCO2")
"inactive"
>>> answer_label("COc1ccc(NC(=O)C(=O)NCC(=O)Nc2cccc(C(F)(F)F)c2)cc1")
"inactive"
>>> answer_label("N=C(Cc1ccc([N+](=O)[O-])cc1)NOC(=O)c1ccc(Br)cc1")
"active"

Kindly consider the entry below.
Data request: Can you look up the reported call for CCCCOC1CC(c2ccc(OCc3ccc(OC)cc3)c(OC)c2)N(C)O1 (stereo unspecified) for me?
Data returned: active

====

Consider the following molecules and their measured AC50 readings.
target: Microphthalmia-associated transcription factor (Homo sapiens, UniProt O75030); test: reducers of TRPM1 reporter luminescence, concentration series – cell-based, SK-MEL-5, cherry-picked, set 3, MITF inhibitor project, dose response (AID 493073); type: functional;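 note: SK-MEL-5 melanoma cells with luciferase driven by the MITF target TRPM1 promoter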
Sequence (O75030 whole entry): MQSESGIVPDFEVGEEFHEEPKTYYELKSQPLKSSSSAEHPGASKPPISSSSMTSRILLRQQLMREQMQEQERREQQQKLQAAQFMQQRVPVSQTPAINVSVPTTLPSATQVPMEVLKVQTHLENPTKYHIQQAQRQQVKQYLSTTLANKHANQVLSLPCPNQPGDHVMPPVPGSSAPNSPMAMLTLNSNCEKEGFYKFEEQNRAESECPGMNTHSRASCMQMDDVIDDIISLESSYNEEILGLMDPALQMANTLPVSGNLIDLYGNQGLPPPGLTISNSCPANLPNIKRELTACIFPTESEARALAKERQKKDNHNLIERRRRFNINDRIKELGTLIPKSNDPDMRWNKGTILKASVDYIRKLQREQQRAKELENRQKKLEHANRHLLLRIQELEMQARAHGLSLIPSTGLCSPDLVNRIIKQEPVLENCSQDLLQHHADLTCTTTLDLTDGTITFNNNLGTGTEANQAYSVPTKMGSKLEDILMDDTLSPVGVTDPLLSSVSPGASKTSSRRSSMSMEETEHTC
Calls of active or inactive are those of the source.

Known AC50 results, listed for orientation:
>>> result("CCN1CCCC1CNC(=O)c1ccc2c(c1)NC(=O)/C(=C\\c1ccc(OC)c(OC)c1)S2 (stereo not given)")
"13.8 µM (active)"
>>> result("COc1cc(CNC2CCCC2)cc(Cl)c1OCc1ccccc1Cl")
"17.7 µM (active)"
>>> result("CCOC(=O)N1C(=O)[C@](CC)(c2ccccc2)N1C(=O)OCC")
"10 µM (active)"
>>> result("O=C(N/N=C\\c1ccc([N+](=O)[O-])o1)C1COc2ccccc2O1 (stereo not given)")
"7.21 µM (active)"

Next molecule, please.
Value of measured AC50 for the entry CC(OC(=O)c1ccc([N+](=O)[O-])s1)C(=O)NC1CCCCC1C (stereo not given) : 12 µM (active)
